Every entry's value here was drawn from paper PMC9321596.

- Experimental Target: NIMA interacting protein 1 (Pin1) (human) (UniProt Q13526)
- Sequence (Q13526 whole entry): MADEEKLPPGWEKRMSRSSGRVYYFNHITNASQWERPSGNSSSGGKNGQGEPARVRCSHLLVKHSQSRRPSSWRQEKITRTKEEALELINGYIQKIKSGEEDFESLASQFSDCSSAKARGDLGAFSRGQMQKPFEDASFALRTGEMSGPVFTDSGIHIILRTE
- Assay Overview: Corning Epic label-free optical biosensor
pKd: −log10 of the molar value.
Short version: pKd at least 5 is 1, less is 0.

• Ac-AQPF-OMe (SMILES COC(=O)[C@H](Cc1ccccc1)NC(=O)[C@@H]1CCCN1C(=O)[C@H](CCC(N)=O)NC(=O)[C@H](C)NC(C)=O) [Methyl acetyl-L-alanyl-L-glutaminyl-L-prolyl-L-phenylalaninate (5 m)] = 0
• Ac-AVPF-OMe (SMILES COC(=O)[C@H](Cc1ccccc1)NC(=O)[C@@H]1CCCN1C(=O)[C@@H](NC(=O)[C@H](C)NC(C)=O)C(C)C) [Methyl acetyl-L-alanyl-L-valyl-L-prolyl-L-phenylalaninate (5 b)] = 1
• Ac-ASPF-OMe (SMILES COC(=O)[C@H](Cc1ccccc1)NC(=O)[C@@H]1CCCN1C(=O)[C@H](CO)NC(=O)[C@H](C)NC(C)=O) [Methyl acetyl-L-alanyl-L-seryl-L-prolyl-L-phenylalaninate (5 h)] = 1
• Ac-AGPF-OMe (SMILES COC(=O)[C@H](Cc1ccccc1)NC(=O)[C@@H]1CCCN1C(=O)CNC(=O)[C@H](C)NC(C)=O) [Methyl acetyl-L-alanylglycyl-L-prolyl-L-phenylalaninate (5 a)] = 1
• Ac-ARPF-OMe [Methyl acetyl-L-alanyl-L-arginyl-L-prolyl-L-phenylalaninate (5 d)] = 0
• Ac-AMPF-OMe (SMILES COC(=O)[C@H](Cc1ccccc1)NC(=O)[C@@H]1CCCN1C(=O)[C@H](CCSC)NC(=O)[C@H](C)NC(C)=O) [Methyl acetyl-L-alanyl-L-methionyl-L-prolyl-L-phenylalaninate (5 l)] = 0
